B1: PTPLAD1 (parent)
chain: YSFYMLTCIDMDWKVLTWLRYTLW

Variants of: B1
Experiment: protein stability index of a GFP-peptide fusion (GPS, HEK-293T) (PSI 1-6); higher = more stable;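 further: lentivirally expressed fusions sorted by FACS into six bins by GFP to DsRed ratio, PSI derived from sequencing read proportions per bin multiplied by bin number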
Conditions: c terminus: a fixed tail appended
Recorded measurements of protein stability index, one per entry
Give a plain numeric answer without units written out.

Take a look at these entries with their results.
1. K14H	2.97
2. S2Q	1.97
3. Y4T	1.86
4. D12E	2.68
5. T17H	2.63
6. M11T	1.21
7. C8R	1.42
8. L23S	2.99

Quick one: protein stability index of "M5P" ?
2.17

Quick one: protein stability index of "V15T" ?
2.91

Quick one: protein stability index of "L23P" ?
4.2
